Parameter GI50: see the listing below.
test system: HCC 2998; test: Antitumor activity against human HCC2998 cells; type: functional

Illustrative cases are given below, each with its answer.
>>> print(df.to_string())
                                   compound  observedresult
0  CS(=O)(=O)c1ccc([C@H]2O[C@@H](CO)C[C@]2(O)c2ccc(S(C)(=O)=O)cc2)cc1 (relative stereo)        > 100 µM
1  OC[C@H]1C[C@](O)(c2ccc(F)cc2)[C@@H](c2ccc(F)cc2)O1 (relative stereo)        > 100 µM

Req: # get_value(readout='GI50', item= COc1ccc([C@H]2O[C@@H](CO)C[C@]2(O)c2ccc(OC)cc2)cc1 (relative stereo) )
Resp: > 100 µM

====

Parameter GI50: see the listing below.
system: Malme-3M; experiment: Antitumor activity against human MALME-3M cells; format: functional

In [3]: df
Out[3]:
                                   compound  observedresult
0  COc1ccc([C@H]2O[C@@H](CO)C[C@]2(O)c2ccc(OC)cc2)cc1 (relative stereo)        > 100 µM
1  OC[C@H]1C[C@](O)(c2ccc(F)cc2)[C@@H](c2ccc(F)cc2)O1 (relative stereo)        > 100 µM

Req: # get_value(readout='GI50', item= CS(=O)(=O)c1ccc([C@H]2O[C@@H](CO)C[C@]2(O)c2ccc(S(C)(=O)=O)cc2)cc1 (relative stereo) )
Resp: > 100 µM
